# Test system: Mycobacterium tuberculosis
# RUN_DESCRIPTION: Antimycobacterial activity against non-replicating Mycobacterium tuberculosis H37Rv ATCC 27294 incubated for 10 days under anaerobic condition followed by treatment under aerobic condition and measured on day 11 by luminescence based low oxygen recovery assay
# Assay type: functional
# TEST_CONDITIONS: H37Rv ATCC 27294, 264 h, time 11 day
QUANTITY: MIC

C#CCNC(=O)c1c(C)nc2c3ccccc3c3ccccc3n12	> 319 µM
O=C(Nc1nc2ccccc2c2ccccc12)c1cnccn1	> 333 µM
C#CCCC(=O)Nc1nc2ccccc2c2ccccc12	> 365 µM

The record that follows has no MIC shown yet.
*Q* Request: MIC, test system Mycobacterium tuberculosis, entry O=C(/C=C/c1ccccc1)Nc1nc2ccccc2c2ccccc12
*A* > 308 µM
